Below is a list of entries, each paired with its recorded Activity value.
tested on: Rattus norvegicus; assay: Compound was tested for hypotensive activity by measuring the average change in mean arterial blood pressure in mmHg after 24 hr at 0.5 mg/Kg oral dosing of a conscious rat; format: functional, Artery
outcome measure: Activity (mmHg)

>>> number("O=C(c1ccc(Nc2ccnc3cc(C(F)(F)F)ccc23)cc1)N1CCN(S(=O)(=O)c2ccc(Cl)cc2)CC1")
-15
>>> number("O=C(c1ccc(Nc2ccnc3cc(C(F)(F)F)ccc23)cc1)N1CCC(O)(c2ccc(Cl)cc2)CC1")
-22
>>> number("Cc1cccc(C2(O)CCN(C(=O)c3ccc(Nc4ccnc5cc(C(F)(F)F)ccc45)cc3)CC2)c1")
-1
>>> number("Cc1ccccc1N1CCN(S(=O)(=O)c2ccc(Nc3ccnc4cc(C(F)(F)F)ccc34)cc2)CC1")
0

* * *

Here the recorded Dose is given for each entry.
organism: Mus musculus; assay: Lowest dose of compound associated with unacceptable clinical signs.; assay type: functional
outcome measure: Dose

>>> result("O=C(c1ccc(Nc2ccnc3cc(C(F)(F)F)ccc23)cc1)N1CCN(S(=O)(=O)c2ccc(Cl)cc2)CC1")
">3160 mg/kg"
>>> result("CN(C)S(=O)(=O)N1CCN(C(=O)c2ccc(Nc3ccnc4cc(C(F)(F)F)ccc34)cc2)CC1")
">3160 mg/kg"
>>> result("O=C(c1ccc(Nc2ccnc3cc(C(F)(F)F)ccc23)cc1)N1CCC(O)(c2ccc(Cl)cc2)CC1")
"<100 mg/kg"
>>> result("O=C(c1ccc(Nc2ccnc3cc(C(F)(F)F)ccc23)cc1)N1CCN(S(=O)(=O)c2ccc(F)cc2)CC1 [LOSULAZINE]")
">3160 mg/kg"
>>> result("COc1cc(N2CCN(C(=O)c3ccc(Nc4ccnc5cc(C(F)(F)F)ccc45)cc3)CC2)nc(OC)n1")
"<100 mg/kg"
